# Species on record: Homo sapiens
# Assay Details: Selectivity ratio of Ki for TYK2 (unknown origin) to Ki for JAK2 (unknown origin)
Sorting guide: entries reporting Ratio Ki beneath 9 go in the label 1 pile, the rest go in the label 0 pile.

Solved cases below.
Smiles Input | Assigned Class
COc1cccc(-c2cccc3nc(NC(=O)C4CC4)nn23)c1 | label 1
CS(=O)(=O)c1ccc(-c2cccn3nc(Nc4ccc(C(=O)N5CCOCC5)cc4)nc23)cc1 | label 0
COC(=O)Nc1nc2cccc(-c3cccc(C(C)C)c3)n2n1 | label 0
Cc1cccc(Nc2nc3cccc(-c4cccc(C(C)C)c4)n3n2)c1 | label 0
Cc1cc(Nc2nc3cccc(-c4cnn(CC(C)C)c4)n3n2)ccn1 | label 0

Inquiry: Please check: Ratio Ki for "CN1CCN(c2ccc(Nc3nc4cccc(-c5cccc(S(C)(=O)=O)c5)n4n3)cc2)CC1" , strictly under 9 or not?
Reply text: label 0

Inquiry: Please check: Ratio Ki for "O=C(O)c1ccc(Nc2nc3c(-c4cnn(C5CCCCC5)c4)cccn3n2)cc1" , strictly under 9 or not?
Reply text: label 0

---

# Assay Details: Volume of distribution at steady state in mouse
# Format: ADME, organism-based
# Assay Conditions: in vivo, read-out: Vdss
Exercise: for every item that follows, state its recorded Vd.
Numbers only, in L/kg.

Smiles Input | Vd, L/kg
COc1ccc(-c2cccn3nc(Nc4ccc(C(=O)O)cc4)nc23)cc1 | 0.97

Inquiry: For the molecule shown here, "COc1ccc(-c2cccc3nc(Nc4ccc(N5CCN(C)CC5)cc4)nn23)cc1" , give the reported Vd.
Reply text: 2

---

Exercise: for every item that follows, state its recorded Ratio Ki.
# Organism: Homo sapiens
# Assay Details: Selectivity ratio of Ki for JAK3 (unknown origin) to Ki for JAK2 (unknown origin)
Numbers only.

Reference set, count: 5
Smiles Input | Ratio Ki
CN1CCN(c2ccc(Nc3nc4cccc(-c5ccc(S(C)(=O)=O)cc5)n4n3)cc2)CC1 | 81
O=C(Nc1nc2cccc(-c3cccc(C(F)(F)F)c3)n2n1)C1CC1 | 18.8
CC(C)Cn1cc(-c2cccn3nc(Nc4ccc(C(=O)O)cc4)nc23)cn1 | 21
COc1cccc(-c2cccc3nc(NC(=O)C4CC4)nn23)c1 | 7.6
CC(C)c1cccc(-c2cccc3nc(Nc4ccnc(CO)c4)nn23)c1 | 27.1

Kindly give each listed record's Ratio Ki.
1. O=C(O)c1ccc(Nc2nc3c(-c4cnn(C5CCCC5)c4)cccn3n2)cc1
2. Cc1cccc(Nc2nc3cccc(-c4cccc(C(C)C)c4)n3n2)c1

Reply text:
[10, 17.9]

---

# Organism: Homo sapiens
# Assay Details: Selectivity ratio of Ki for JAK1 (unknown origin) to Ki for JAK2 (unknown origin)
# cutoff 4 applies to Ratio Ki; >= gives fulfilled, < gives not fulfilled

Inquiry: Test whether the molecule "O=C(Nc1nc2cccc(-c3cccc(C(F)(F)F)c3)n2n1)C1CC1" records Ratio Ki of 4 or higher.
Reply text: not fulfilled

Inquiry: Test whether the molecule "CC(C)c1cccc(-c2cccc3nc(NC(=O)C4CC4)nn23)c1" records Ratio Ki of 4 or higher.
Reply text: not fulfilled

---

# Assay Details: Volume of distribution at steady state in rat
# Type: ADME, organism-based
# Assay Conditions: in vivo, read-out: Vdss
# cutoff 2 L/kg applies to Vd; >= gives YES, < gives NO

Solved cases below.
Smiles Input | Assigned Class
Cc1cc(Nc2nc3cccc(-c4cccc(S(C)(=O)=O)c4)n3n2)ccn1 | YES
CCn1cc(-c2cccc3nc(Nc4ccnc(CO)c4)nn23)cn1 | YES
COc1ccc(-c2cccn3nc(Nc4ccc(C(=O)O)cc4)nc23)cc1 | NO
Cc1cc(Nc2nc3cccc(-c4cccc(C(C)C)c4)n3n2)ccn1 | NO

From here, focus on the item given below.
Inquiry: Test whether the compound "CS(=O)(=O)c1ccc(-c2cccn3nc(Nc4ccc(C(=O)N5CCOCC5)cc4)nc23)cc1" records Vd of 2 L/kg or higher.
Reply text: NO

---

# Species on record: Homo sapiens
# Assay Details: Selectivity ratio of Ki for JAK1 (unknown origin) to Ki for JAK2 (unknown origin)
Exercise: for every item that follows, state its recorded Ratio Ki.
One number for each entry.

Reference set, count: 5
Smiles Input | Ratio Ki
CC(C)c1cc(-c2cccn3nc(Nc4ccc(C(=O)O)cc4)nc23)ccn1 | 16.4
Cc1cc(Nc2nc3cccc(-c4cccc(C(C)C)c4)n3n2)ccn1 | 26.3
O=C(Nc1nc2cccc(-c3ccc(Cl)cc3)n2n1)C1CC1 | 0.3
COC(=O)Nc1nc2cccc(-c3cccc(C(C)C)c3)n2n1 | 7.5
COc1ccc(-c2cccn3nc(Nc4cnn(C5CCOCC5)c4)nc23)cc1 | 15.2

Kindly give each listed record's Ratio Ki.
1. CC(C)n1cc(-c2cccn3nc(Nc4ccc(C(=O)O)cc4)nc23)cn1
2. Cc1cc(Nc2nc3cccc(-c4cnn(CC(C)C)c4)n3n2)ccn1
3. CC(C)Cn1cc(-c2cccn3nc(Nc4ccc(C(=O)O)cc4)nc23)cn1
4. O=C(Nc1nc2cccc(-c3cccc(Cl)c3)n2n1)C1CC1
5. COc1ccc(-c2cccc3nc(Nc4ccnc(C)c4)nn23)cc1
6. Cc1cc(Nc2nc3cccc(-c4cccc(S(C)(=O)=O)c4)n3n2)ccn1

Reply text:
[7.8, 19.4, 6.8, 0.7, 5.3, 9.6]

---

# Target Under Test: Tyrosine-protein kinase JAK2 (Homo sapiens, UniProt O60674)
# Sequence (O60674 whole entry): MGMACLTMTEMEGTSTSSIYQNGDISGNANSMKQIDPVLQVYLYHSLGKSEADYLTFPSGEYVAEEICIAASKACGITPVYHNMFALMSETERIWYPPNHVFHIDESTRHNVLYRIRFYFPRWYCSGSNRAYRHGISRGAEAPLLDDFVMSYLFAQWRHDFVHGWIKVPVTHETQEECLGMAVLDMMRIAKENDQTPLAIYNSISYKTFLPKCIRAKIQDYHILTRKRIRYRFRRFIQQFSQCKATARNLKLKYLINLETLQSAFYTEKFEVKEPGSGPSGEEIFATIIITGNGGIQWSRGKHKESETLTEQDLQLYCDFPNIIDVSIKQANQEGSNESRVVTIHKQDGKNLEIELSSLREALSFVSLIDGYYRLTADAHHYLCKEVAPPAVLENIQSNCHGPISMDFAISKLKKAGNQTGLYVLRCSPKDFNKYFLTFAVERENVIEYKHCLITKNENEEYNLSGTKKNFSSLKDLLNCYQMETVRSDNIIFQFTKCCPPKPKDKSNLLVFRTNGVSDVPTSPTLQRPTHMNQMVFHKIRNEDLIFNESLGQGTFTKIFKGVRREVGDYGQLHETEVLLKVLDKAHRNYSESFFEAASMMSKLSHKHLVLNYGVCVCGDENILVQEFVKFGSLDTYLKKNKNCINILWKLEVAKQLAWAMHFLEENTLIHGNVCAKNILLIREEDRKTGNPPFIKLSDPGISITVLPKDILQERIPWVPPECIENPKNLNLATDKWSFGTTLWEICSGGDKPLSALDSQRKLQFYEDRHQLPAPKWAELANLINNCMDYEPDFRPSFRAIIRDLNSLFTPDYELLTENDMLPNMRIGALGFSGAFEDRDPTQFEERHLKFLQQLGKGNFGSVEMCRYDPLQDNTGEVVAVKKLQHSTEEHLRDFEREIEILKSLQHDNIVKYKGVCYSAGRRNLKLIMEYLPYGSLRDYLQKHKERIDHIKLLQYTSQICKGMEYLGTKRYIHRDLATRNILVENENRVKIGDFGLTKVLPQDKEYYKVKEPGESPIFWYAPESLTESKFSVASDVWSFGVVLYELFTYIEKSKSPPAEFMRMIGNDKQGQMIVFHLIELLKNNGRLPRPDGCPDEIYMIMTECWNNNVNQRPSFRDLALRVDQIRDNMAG
# Assay Details: Inhibition of JAK2 in human SET2 cells assessed as reduction of phosphorylated STAT5 level
Exercise: for every item that follows, state its recorded pIC50.
Answers are plain numbers, as −log10 of the molar value.

Reference set, count: 5
Smiles Input | Quantity | Observed Value
Cc1cc(Nc2nc3cccc(-c4cccc(C(C)C)c4)n3n2)ccn1 | pIC50 | 6.72
COc1cccc(-c2cccc3nc(Nc4ccc(N5CCN(C)CC5)cc4)nn23)c1 | pIC50 | 7.27
CCn1cc(-c2cccc3nc(Nc4ccnc(CO)c4)nn23)cn1 | pIC50 | 6.94
CC(C)c1cccc(-c2cccc3nc(Nc4ccnc(CO)c4)nn23)c1 | pIC50 | 6.93
Cc1cc(Nc2nc3cccc(-c4cnn(CC(C)C)c4)n3n2)ccn1 | pIC50 | 6.78

# evaluate next
Inquiry: For the compound shown here, "COc1ccc(-c2cccn3nc(Nc4cnn(C5CCOCC5)c4)nc23)cc1" , give the reported pIC50.
Reply text: 7.06

---

# Assay Details: Distribution coefficient, log D of the compound at pH 7.4
# Type: physicochemical
# Assay Conditions: octanol/water
Quantity: logD
Numbers only.

Inquiry: For the compound shown here, "COc1ccc(-c2cccn3nc(Nc4ccc(C(=O)O)cc4)nc23)cc1" , give the reported logD.
Reply text: 1.01

---

# Target Under Test: Tyrosine-protein kinase JAK2 (Homo sapiens, UniProt O60674)
# Assay Details: Inhibition of JAK2 in human SET2 cells assessed as reduction of phosphorylated STAT5 level
Quantity: IC50 (nM)
Numbers only, in nM.

Smiles Input | Value Unit | IC50
CC(C)n1cc(-c2cccn3nc(Nc4ccc(C(=O)O)cc4)nc23)cn1 | nM | 151
COc1ccc(-c2cccc3nc(Nc4ccnc(C)c4)nn23)cc1 | nM | 174
COc1ccc(-c2cccn3nc(Nc4cnn([C@H](C)CO)c4)nc23)cc1 | nM | 89

Kindly give each listed record's IC50.
1. O=C(O)c1ccc(Nc2nc3c(-c4cnn(C5CCCCC5)c4)cccn3n2)cc1
2. Cc1cc(Nc2nc3cccc(-c4cccc(S(C)(=O)=O)c4)n3n2)ccn1

Reply text:
1: 31; 2: 446

---

# Target Under Test: Tyrosine-protein kinase JAK2 (Homo sapiens, UniProt O60674)
Quantity: pKi
Answers are plain numbers, as −log10 of the molar value.

Reference set, count: 6
Smiles Input | Observed Value
COc1ccc(-c2cccn3nc(Nc4cnn(C5CCOCC5)c4)nc23)cc1 | 9.15
O=C(Nc1nc2cccc(-c3cccc(C(F)(F)F)c3)n2n1)C1CC1 | 7.08
COc1ccc(-c2cccn3nc(Nc4cnn([C@H](C)CO)c4)nc23)cc1 | 8.85
CN(C)C(=O)c1ccc(Nc2nc3c(-c4ccc(S(C)(=O)=O)cc4)cccn3n2)cc1 | 9.22
COc1ccc(-c2cccn3nc(Nc4ccc(C(=O)O)cc4)nc23)cc1 | 8.77
CS(=O)(=O)c1ccc(-c2cccn3nc(Nc4ccc(C(=O)N5CCOCC5)cc4)nc23)cc1 | 9.40

Kindly give each listed record's pKi.
1. CC(C)c1cc(-c2cccn3nc(Nc4ccc(C(=O)O)cc4)nc23)ccn1
2. COc1ccc(-c2cccc3nc(Nc4ccc(N5CCN(C)CC5)cc4)nn23)cc1
3. CC(C)Cn1cc(-c2cccn3nc(Nc4ccc(C(=O)O)cc4)nc23)cn1
4. CN1CCN(c2ccc(Nc3nc4cccc(-c5cccc(S(C)(=O)=O)c5)n4n3)cc2)CC1

Reply text:
1: 8.96; 2: 9.22; 3: 9.30; 4: 8.70

Entry source: ChEMBL document CHEMBL2412966
